method.summary: Volume of distribution at steady state in CD-1 mouse at 1 mg/kg, po and 0.5 mg/kg, iv
Assay type: ADME, organism-based
experimental.setup: in vivo
metric: Vdss (L/kg)
Give your result in L/kg as a bare value.

Known results for compounds:
Reported Vdss of N#Cc1ccc(N2CCC(c3ccc(N4CCC(CN5CCN(c6ccc7c(c6)CN(C6CCC(=O)NC6=O)C7=O)CC5)CC4)cc3)CC2)cc1C(F)(F)F (stereo not drawn) : 4.5

Reported Vdss of COc1cc(N2CCN(CC3CCN(c4ccc(C5CCN(c6ccc(C#N)c(C(F)(F)F)c6F)CC5)cc4)CC3)CC2)cc2c1C(=O)N(C1CCC(=O)NC1=O)C2 (stereo not drawn) : 1.5

New cases:
Reported Vdss of COc1cc(N2CCN(CC3CCN(c4ccc(C5CCN(c6ccc(C#N)c(C(F)(F)F)c6)CC5)cc4)CC3)CC2)cc2c1C(=O)N(C1CCC(=O)NC1=O)C2 (stereo not drawn) : 2.4

# credit: ChEMBL document CHEMBL5523747
